Reference source for all entries: ChEMBL document CHEMBL1130044

// pKi lookup, one value per entry
TESTED_SYSTEM: Human immunodeficiency virus type 1 protease (Human immunodeficiency virus 1)
Friendly reminder that pKi comes from taking -log10 of the concentration in mol/L.

Would you please look over these solved cases?
substance_smiles=NC(=O)c1cc(CN2C(=O)N(Cc3ccc(F)c(C(N)=O)c3)[C@H](Cc3ccccc3)[C@H](O)[C@H]2CCc2ccccc2)ccc1F test_value=8.85
substance_smiles=O=C1N(CC2CC2)[C@H](CCc2ccccc2)[C@@H](O)[C@@H](Cc2ccccc2)N1CC1CC1 test_value=8.42
substance_smiles=N#Cc1cccc(CN2C(=O)N(Cc3cccc(C#N)c3)[C@H](Cc3ccccc3)[C@H](O)[C@H]2CCc2ccccc2)c1 test_value=7.96

Query string: Please look up its pKi: O=C1N(Cc2cccc(CO)c2)[C@H](CCc2ccccc2)[C@@H](O)[C@@H](Cc2ccccc2)N1Cc1cccc(CO)c1
Result string: 9.31

###

TESTED_SYSTEM: Human immunodeficiency virus type 1 protease (Human immunodeficiency virus 1)
pKi: −log10 of the molar value.
Classification field: t = pKi at or over 7; f = pKi under 7.

Recorded results for 2 compounds are shown here.
substance_smiles=NC(=O)c1cccc(CN2C(=O)N(Cc3cccc(C(N)=O)c3)[C@H](Cc3ccccc3)[C@H](O)[C@H]2CCc2ccccc2)c1 category_label=t
substance_smiles=Nc1cc(CN2C(=O)N(Cc3ccc(F)c(N)c3)[C@H](Cc3ccccc3)[C@H](O)[C@H]2CCc2ccccc2)ccc1F category_label=t

Query string: Item O=C1N(Cc2cccc(O)c2)[C@H](Cc2ccccc2)C(O)[C@@H](Cc2ccccc2)N1Cc1cccc(O)c1 with pKi of 7 or above?
Result string: t

Query string: Then what about the compound NC(=O)c1cccc(CN2C(=O)N(Cc3cccc(C(N)=O)c3)[C@@H](Cc3ccccc3)[C@@H](O)[C@@H]2CCc2ccccc2)c1 ?
Result string: f

Query string: Then what about the compound O=C1N(Cc2cccc(CO)c2)[C@@H](CCc2ccccc2)[C@H](O)[C@H](Cc2ccccc2)N1Cc1cccc(CO)c1 ?
Result string: f

Query string: Then what about the compound COC(=O)c1ccc(CN2C(=O)N(Cc3ccc(C(=O)OC)cc3)[C@H](Cc3ccccc3)[C@H](O)[C@H]2CCc2ccccc2)cc1 ?
Result string: f

Query string: Then what about the compound N#Cc1cccc(CN2C(=O)N(Cc3cccc(C#N)c3)[C@@H](Cc3ccccc3)[C@@H](O)[C@@H]2CCc2ccccc2)c1 ?
Result string: f

###

Test system: Human immunodeficiency virus type 1 (RF/HAT ISOLATE)
ASSAY_NAME: Reduction in HIV viral RNA concentration by 90% in MT-2 cells infected with HIV-1RF.
Format: functional
MEASUREMENT_CONTEXT: Human immunodeficiency virus 1, RF, MT2
Response field label takes True when IC90 is strictly below 50 nM and False in all other cases.

Recorded results for 2 compounds are shown here.
substance_smiles=NC(=O)c1cccc(CN2C(=O)N(Cc3cccc(C(N)=O)c3)[C@@H](Cc3ccccc3)[C@@H](O)[C@@H]2CCc2ccccc2)c1 category_label=False
substance_smiles=O=C1N(Cc2cccc(O)c2)[C@H](CCc2ccccc2)[C@@H](O)[C@@H](Cc2ccccc2)N1Cc1cccc(O)c1 category_label=False

Query string: Lab note: IC90 threshold 50 nM. Does this compound come in strictly under it? O=C1N(Cc2cccc(CO)c2)[C@@H](CCc2ccccc2)[C@H](O)[C@H](Cc2ccccc2)N1Cc1cccc(CO)c1
Result string: False

Query string: Then what about the compound O=C1N(Cc2cccc(CO)c2)[C@H](CCc2ccccc2)[C@@H](O)[C@@H](Cc2ccccc2)N1Cc1cccc(CO)c1 ?
Result string: False

Query string: Then what about the compound Nc1ccc(CN2C(=O)N(Cc3ccc(N)c(F)c3)[C@H](Cc3ccccc3)[C@H](O)[C@H]2CCc2ccccc2)cc1F ?
Result string: False

Query string: Then what about the compound COC(=O)c1cccc(CN2C(=O)N(Cc3cccc(C(=O)OC)c3)[C@H](Cc3ccccc3)[C@H](O)[C@H]2CCc2ccccc2)c1 ?
Result string: False

Query string: Then what about the compound NC(=O)c1cc(CN2C(=O)N(Cc3ccc(F)c(C(N)=O)c3)[C@H](Cc3ccccc3)[C@H](O)[C@H]2CCc2ccccc2)ccc1F ?
Result string: False

Query string: Then what about the compound COC(=O)c1cccc(CN2C(=O)N(Cc3cccc(C(=O)OC)c3)[C@@H](Cc3ccccc3)[C@@H](O)[C@@H]2CCc2ccccc2)c1 ?
Result string: False

Query string: Then what about the compound COC(=O)c1ccc(CN2C(=O)N(Cc3ccc(C(=O)OC)cc3)[C@H](Cc3ccccc3)[C@H](O)[C@H]2CCc2ccccc2)cc1 ?
Result string: False

Query string: Then what about the compound Nc1cc(CN2C(=O)N(Cc3ccc(F)c(N)c3)[C@H](Cc3ccccc3)[C@H](O)[C@H]2CCc2ccccc2)ccc1F ?
Result string: True

Query string: Then what about the compound CNc1cccc(CN2C(=O)N(Cc3cccc(NC)c3)[C@H](Cc3ccccc3)[C@H](O)[C@H]2CCc2ccccc2)c1 ?
Result string: False

Query string: Then what about the compound NC(=O)c1cccc(CN2C(=O)N(Cc3cccc(C(N)=O)c3)[C@H](Cc3ccccc3)[C@H](O)[C@H]2CCc2ccccc2)c1 ?
Result string: True

Query string: Then what about the compound O=C1N[C@H](CCc2ccccc2)[C@@H](O)[C@@H](Cc2ccccc2)N1 ?
Result string: False
